Molecular target: EGFR (human) (UniProt P00533)
Settings: mda468
observable: pIC50
Schema: pIC50 number; meaning minus log10 of the concentration expressed in molar units.

Entry Cn1c(S)c(C(=O)Nc2ccccc2)c2ccccc21 , pIC50 reported as 4.37

----------
Biological target: EGFR (murine) (UniProt P00533)
Sequence (P00533 whole entry, looked up): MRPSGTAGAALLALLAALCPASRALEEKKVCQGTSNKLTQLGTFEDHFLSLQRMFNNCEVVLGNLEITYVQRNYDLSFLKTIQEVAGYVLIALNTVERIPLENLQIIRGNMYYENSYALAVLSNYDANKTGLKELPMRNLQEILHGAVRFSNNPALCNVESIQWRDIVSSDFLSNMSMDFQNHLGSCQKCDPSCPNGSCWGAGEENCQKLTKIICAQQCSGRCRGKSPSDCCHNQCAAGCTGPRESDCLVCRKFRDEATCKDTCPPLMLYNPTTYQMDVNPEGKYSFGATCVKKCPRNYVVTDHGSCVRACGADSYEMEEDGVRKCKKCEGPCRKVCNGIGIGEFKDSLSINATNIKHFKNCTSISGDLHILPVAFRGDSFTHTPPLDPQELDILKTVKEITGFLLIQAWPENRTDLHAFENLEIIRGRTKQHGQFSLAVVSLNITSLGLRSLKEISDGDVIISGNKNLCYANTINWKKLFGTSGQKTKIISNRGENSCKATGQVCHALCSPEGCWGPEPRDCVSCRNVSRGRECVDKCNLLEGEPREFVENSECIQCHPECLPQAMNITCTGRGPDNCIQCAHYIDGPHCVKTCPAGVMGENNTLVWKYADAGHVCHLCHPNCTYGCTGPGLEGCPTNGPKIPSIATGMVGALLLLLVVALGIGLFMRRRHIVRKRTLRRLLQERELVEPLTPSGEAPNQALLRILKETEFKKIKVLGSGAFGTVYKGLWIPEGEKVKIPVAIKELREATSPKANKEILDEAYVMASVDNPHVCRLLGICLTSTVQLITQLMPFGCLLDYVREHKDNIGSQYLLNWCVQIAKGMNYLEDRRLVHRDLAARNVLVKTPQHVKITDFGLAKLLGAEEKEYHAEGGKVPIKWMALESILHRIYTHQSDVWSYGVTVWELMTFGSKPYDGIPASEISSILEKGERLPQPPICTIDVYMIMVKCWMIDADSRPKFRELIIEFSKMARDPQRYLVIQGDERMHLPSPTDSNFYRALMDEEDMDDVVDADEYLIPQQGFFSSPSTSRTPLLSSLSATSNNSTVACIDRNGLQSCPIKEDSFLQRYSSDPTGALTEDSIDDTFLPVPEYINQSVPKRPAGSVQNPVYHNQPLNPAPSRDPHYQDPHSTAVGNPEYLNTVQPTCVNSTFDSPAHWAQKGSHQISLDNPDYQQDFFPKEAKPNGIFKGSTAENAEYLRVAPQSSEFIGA
Conditions: fibroblast
observable: IC50 (nM)
Field format: number, assumed nM, no unit text.

Entry Cn1c(S)c(C(=O)Nc2ccccc2)c2ccccc21 , IC50 reported as 2000

----------
Target: UniProt P00533
Conditions: a431
observable: pIC50
Schema: pIC50 number; meaning minus log10 of the concentration expressed in molar units.

Entry Cn1c(S)c(C(=O)Nc2ccccc2)c2ccccc21 , pIC50 reported as 4.21

Every entry's value here was drawn from the Kinase Knowledgebase extract (Sharma et al. 2016).
